Could you please report measured pIC50 for the items listed next?
- measuredTarget: Recombinant human mPGES-1 (Homo sapiens)
- Sequence (O14684 1-152): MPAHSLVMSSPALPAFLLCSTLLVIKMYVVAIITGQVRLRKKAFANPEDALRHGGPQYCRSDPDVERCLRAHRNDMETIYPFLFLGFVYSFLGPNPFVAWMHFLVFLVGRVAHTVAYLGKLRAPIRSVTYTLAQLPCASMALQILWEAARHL
- protocolDetails: In-vitro mPGES-1 inhibitor screening (inhibition of PGE2 formation from PGH2, HTRF detection)
- settings: class symbol; concentration response curve
pIC50: −log10 of the molar value.

For CC(C)(C)Nc1ncnc2c(NC(=O)c3c(Cl)ccc(CNC(=O)C(C)(C)CF)c3F)cccc12 the compound record lists pIC50 as > 7.30

Value of measured pIC50 for the entry Cc1ccc(CNC(=O)C(C)(C)C)c(C)c1C(=O)Nc1cccc2c(Nc3cccc(C(F)(F)F)c3)nccc12 : > 7.30

// sample CC(C)(C)C(=O)NCc1ccc(Cl)c(C(=O)Nc2cccc3c(Oc4cccc(C(F)(F)F)c4)ccnc23)c1F , its pIC50 was > 7.30

response.value for CC(C)(C)C(=O)NCc1ccc(Cl)c(C(=O)Nc2cccc3c(Oc4cc(C(F)(F)F)ccc4F)ncnc23)c1F (field: pIC50) = > 7.30

Reported pIC50 for CC(C)(C)C(=O)NCc1ccc(Cl)c(C(=O)Nc2cccc3c(Oc4cccc(C(F)(F)F)c4)nccc23)c1 was > 7.30

// sample CC(C)C(=O)NCc1cnc(C(F)F)c(C(=O)Nc2cccc3c(NC(C)(C)C)ncnc23)c1 , its pIC50 was > 7.30

Noted for Cc1nc(NC(C)C)c2cccc(NC(=O)c3c(Cl)ccc(CNC(=O)C(C)(C)C)c3F)c2n1 : its pIC50 reads < 7.00

// CC(C)(C)C(=O)NCc1ccc(Cl)c(C(=O)Nc2cccc3c(Oc4cccc(C(F)(F)F)c4)ccnc23)n1 : pIC50 value = > 7.30

Field pIC50 (entry Cc1nc(NC2CCC(F)(F)CC2)c2cccc(NC(=O)c3c(Cl)ccc(CNC(=O)C(C)(C)C)c3F)c2n1 ) reads < 7.00

Lab note: measured pIC50 of CC(C)(C)C(=O)NCc1ccc(Cl)c(C(=O)Nc2cccc3c(Nc4ccc(C(F)(F)F)nc4)ncnc23)c1F was > 7.30

Entry CC(C)(C)C(=O)NCc1ccc(Cl)c(C(=O)Nc2cccc3c(Nc4cccc(C(F)(F)F)c4)ncnc23)c1 ; pIC50 = > 7.30

pIC50 for CC(C)C(=O)NCc1cnc(C(F)F)c(C(=O)Nc2cccc3c(Oc4ccc(F)c(C(F)(F)F)c4)ccnc23)c1 is > 7.30

Field pIC50 (entry CC(C)(C)Nc1ncnc2c(NC(=O)c3c(Cl)ccc(CNC(=O)C(C)(C)C)c3F)cccc12 ) reads > 7.30

Sample CC(C)(C)C(=O)NCc1ccc(Cl)c(C(=O)Nc2cccc3c(N[C@H]4CC[C@H](C(F)(F)F)CC4)ncnc23)c1F ; pIC50 observed: > 7.30

For this compound ( CC(C)(C)C(=O)NCc1ccc(Cl)c(C(=O)Nc2cccc3c(N[C@H]4CC[C@H](C(F)(F)F)CC4)nccc23)c1F ), measured pIC50 is > 7.30

---

- measuredTarget: Recombinant human mPGES-1 (Homo sapiens, UniProt O14684)
- Construct: made in house; host or cells: CHO cells
- protocolDetails: In-vitro mPGES-1 inhibitor screening (inhibition of PGE2 formation from PGH2, HTRF detection)
- Assay type: biochemical
- settings: 1 μM test compound; crude microsomal fraction, 15 μM PGH2; read-out: Percentage inhibition at 1 μM
resultType: inhibition at 1 µM (%)
Give just the numeric value; % need not be written.

GET /values?item= CC(C)(C)C(=O)NCc1ccc(Cl)c(C(=O)Nc2ccnc3c(Nc4cccc(C(F)(F)F)c4)cccc23)c1 &system= Recombinant human mPGES-1 (Homo sapiens, UniProt O14684) returns inhibition at 1 µM: 97.7

For the molecule CC(C)(C)C(=O)NCc1ccc(Cl)c(C(=O)Nc2cccc3c(Oc4cccc(C(F)(F)F)c4)ccnc23)c1F , the measured inhibition at 1 µM on Recombinant human mPGES-1 (Homo sapiens, UniProt O14684) was 100

Lab note: molecule CC1(C)CCC(Oc2ncnc3c(NC(=O)c4c(Cl)ccc(CNC(=O)C(C)(C)C)c4F)cccc23)CC1 tested on Recombinant human mPGES-1 (Homo sapiens, UniProt O14684); recorded inhibition at 1 µM was 99.3

Tested on Recombinant human mPGES-1 (Homo sapiens, UniProt O14684), the item CC1(C)CCC(Oc2ncnc3c(NC(=O)c4cc(CNC(=O)C(C)(C)C)ccc4Cl)cccc23)CC1 showed inhibition at 1 µM equal to 98.1

Record for CCOc1ncnc2c(NC(=O)c3c(Cl)ccc(CNC(=O)C(C)(C)C)c3F)cccc12 under target or system Recombinant human mPGES-1 (Homo sapiens, UniProt O14684): inhibition at 1 µM reported as 98.4

// returns inhibition at 1 µM for CC(C)(C)C(=O)NCc1ccc(Cl)c(C(=O)Nc2cccc3c(Nc4ccc(C(F)(F)F)cc4)nccc23)c1 with Recombinant human mPGES-1 (Homo sapiens, UniProt O14684); value = 99.6

Entry CC(C)(C)C(=O)NCc1ccc(Cl)c(C(=O)Nc2cccc3c(Nc4cccc(C(F)(F)F)c4)ncnc23)n1 , Recombinant human mPGES-1 (Homo sapiens, UniProt O14684) data, inhibition at 1 µM value: 99

---

Give inhibition at 1 µM for every item shown.
- measuredTarget: Recombinant human mPGES-1 (Homo sapiens, UniProt O14684)
- Construct: made in house; host or cells: CHO cells
- protocolDetails: In-vitro mPGES-1 inhibitor screening (inhibition of PGE2 formation from PGH2, HTRF detection)
- Format: biochemical
- settings: 1 μM test compound; crude microsomal fraction, 15 μM PGH2; read-out: Percentage inhibition at 1 μM

get_value(item= CC(C)C(=O)NCc1ccc(Cl)c(C(=O)Nc2cccc3c(NCC(F)(F)F)ncnc23)c1F , readout=inhibition at 1 µM) returns 88.7%

Short answer for CC(C)(C)C(=O)NCc1ccc(Cl)c(C(=O)Nc2cccc3c(Nc4ccc(C(F)(F)F)nc4)ncnc23)c1F : inhibition at 1 µM was 97.4%

Record CC(C)Nc1ncnc2c(NC(=O)c3c(Cl)ccc(CNC(=O)C(C)C)c3F)cccc12 . Reported inhibition at 1 µM: 78.4%

// sample CC(C)(C)C(=O)NCc1ccc(Cl)c(C(=O)Nc2cccc3c(Nc4ccc(C(F)(F)F)cc4F)nccc23)c1 , its inhibition at 1 µM was 100%

Notebook: CC(C)(C)C(=O)NCc1ccc(Cl)c(C(=O)Nc2cccc3c(Oc4cccc(C(F)(F)F)c4)ccnc23)c1 , inhibition at 1 µM read as 99%

Lab book: inhibition at 1 µM of CC(C)(C)Nc1ncnc2c(NC(=O)c3c(Cl)ccc(CNC(=O)C(C)(C)C)c3F)cccc12 noted as 97.3%

get_value(item= CC(C)(C)C(=O)NCc1ccc(Cl)c(C(=O)Nc2cccc3c(Oc4cccc(C(F)(F)F)c4)ncnc23)n1 , readout=inhibition at 1 µM) returns 99.1%

The reported inhibition at 1 µM of the compound Cc1nc(NC2CCC(C)(C)CC2)c2cccc(NC(=O)c3c(Cl)ccc(CNC(=O)C(C)(C)C)c3F)c2n1 was 98.2%

get_value(item= CC(C)(C)C(=O)NCc1ccc(Cl)c(C(=O)Nc2cccc3c(Nc4cccc(C(F)(F)F)c4)ccnc23)c1F , readout=inhibition at 1 µM) returns 98.7%

Entry CC(C)(C)C(=O)NCc1ccc(Cl)c(C(=O)Nc2cccc3c(Oc4ccc(F)c(C(F)(F)F)c4)ncnc23)c1F ; inhibition at 1 µM = 94.5%

Sample CC(C)Nc1ncnc2c(NC(=O)c3cc(CNC(=O)C(C)C)cnc3C(F)F)cccc12 ; inhibition at 1 µM observed: 83.5%

Notebook: CC(C)(C)C(=O)NCc1ccc(Cl)c(C(=O)Nc2cccc3c(Nc4ccc(C(F)(F)F)cc4F)ncnc23)c1F , inhibition at 1 µM read as 99%

Field inhibition at 1 µM (entry CC(C)(C)C(=O)NCc1ccc(Cl)c(C(=O)Nc2cccc3c(Oc4cc(C(F)(F)F)ccc4F)ncnc23)c1F ) reads 99.1%

Note to self: inhibition at 1 µM recorded for O=C(Nc1cccc2c(Nc3cccc(C(F)(F)F)c3)ncnc12)c1c(Cl)ccc(CNC(=O)[C@@H]2CCCO2)c1F was 95%

Value of measured inhibition at 1 µM for the entry CC(C)(C)C(=O)NCc1ccc(Cl)c(C(=O)Nc2cccc3c(Nc4cc(C(F)(F)F)ccc4F)ncnc23)c1F : 97.3%

---

Provide the reported pIC50 of each item.
- measuredTarget: Recombinant human mPGES-1 (Homo sapiens)
- protocolDetails: In-vitro mPGES-1 inhibitor screening (inhibition of PGE2 formation from PGH2, HTRF detection)
- settings: class symbol; concentration response curve
pIC50: −log10 of the molar value.

Record CCOc1ncnc2c(NC(=O)c3c(Cl)ccc(CNC(=O)C(C)(C)C)c3F)cccc12 [Example-43] . Reported pIC50: > 7.30

Input CC(C)C(=O)NCc1cnc(C(F)F)c(C(=O)Nc2cccc3c(Oc4cccc(C(F)(F)F)c4)ncnc23)c1 [Example-74] . Output pIC50: > 7.30

Memo: CN(C)c1ncnc2c(NC(=O)c3c(Cl)ccc(CNC(=O)C(C)(C)C)c3F)cccc12 [Example-61] , reported pIC50: < 7.00

Sample CC1(C)CCC(Oc2ncnc3c(NC(=O)c4c(Cl)ccc(CNC(=O)C(C)(C)C)c4F)cccc23)CC1 [Example-24] ; pIC50 observed: > 7.30

// recorded pIC50 for CC(C)(C)C(=O)NCc1ccc(Cl)c(C(=O)Nc2cccc3c(O[C@H]4CC[C@@H](C(F)(F)F)CC4)nccc23)c1 [Example-47] : < 7.00

response.value for CC(C)Nc1ncnc2c(NC(=O)c3cc(CNC(=O)C(C)C)cnc3C(F)F)cccc12 [Example-76] (field: pIC50) = 7.00 to 7.30

pIC50 in this record for CC(C)(C)C(=O)NCc1ccc(Cl)c(C(=O)Nc2cccc3c(Nc4ccc(F)c(C(F)(F)F)c4)ncnc23)c1F [Example-25] : > 7.30

// sample CC(C)(CO)C(=O)NCc1ccc(Cl)c(C(=O)Nc2cccc3c(Oc4cccc(C(F)(F)F)c4)ncnc23)c1F [Example-66] , its pIC50 was > 7.30

Entry CC(C)(C)C(=O)NCc1ccc(Cl)c(C(=O)Nc2cccc3c(Oc4cc(C(F)(F)F)ccc4F)nccc23)c1 [Example-41] — recorded pIC50 = > 7.30

So, CC(C)(C)C(=O)NCc1ccc(Cl)c(C(=O)Nc2cccc3c(Nc4cccc(C(F)(F)F)c4)nccc23)n1 [Example-2] ? Its pIC50 was > 7.30

Short answer for CC(C)(C)Nc1ncnc2c(NC(=O)c3cc(CNC(=O)C(C)(C)C)ccc3Cl)cccc12 [Example-67] : pIC50 was > 7.30

Reported pIC50 of CC(C)(C)C(=O)NCc1ccc(Cl)c(C(=O)Nc2cccc3c(O[C@H]4CC[C@@H](C(F)(F)F)CC4)ncnc23)c1F [Example-26] : > 7.30

Lab book: pIC50 of CC(C)(C)C(=O)NCc1ccc(Cl)c(C(=O)Nc2cccc3c(Oc4ccc(C(F)(F)F)cc4)ccnc23)c1F [Example-53] noted as > 7.30

Looking up CCOc1ccnc2c(NC(=O)c3c(Cl)ccc(CNC(=O)C(C)(C)C)c3F)cccc12 [Example-63] , I found its pIC50 recorded as > 7.30

Summary for this compound, CC(C)C(=O)NCc1ccc(Cl)c(C(=O)Nc2cccc3c(NCC(F)(F)F)ncnc23)c1F [Example-73] : pIC50 is > 7.30

pIC50 measured on CC(C)(C)C(=O)NCc1ccc(Cl)c(C(=O)Nc2cccc3c(Oc4ccc(F)c(C(F)(F)F)c4)ncnc23)c1F [Example-52] = > 7.30

pIC50 reading for Cc1ccc2c(Nc3cccc(C(F)(F)F)c3)ncnc2c1NC(=O)c1c(Cl)ccc(CNC(=O)C(C)(C)C)c1F [Example-42] : > 7.30

response.value for CC(C)C(=O)NCc1cnc(C(F)F)c(C(=O)Nc2cccc3c(NCC(F)(F)F)ncnc23)c1 [Example-78] (field: pIC50) = > 7.30

The compound O=C(Nc1cccc2c(Nc3cc(C(F)(F)F)ccc3F)ncnc12)c1c(F)cccc1Cl [Example-34] showed pIC50 equal to < 7.00

Measured pIC50, O=C(Nc1cccc2c(Nc3cccc(C(F)(F)F)c3)ncnc12)c1c(Cl)ccc(CNC(=O)[C@@H]2CCCO2)c1F [Example-23] : > 7.30

Value of measured pIC50 for the entry Cc1nc(NC2CCC(C)(C)CC2)c2cccc(NC(=O)c3c(Cl)ccc(CNC(=O)C(C)(C)C)c3F)c2n1 [Example-54] : > 7.30

Lab book: pIC50 of CC(C)(C)C(=O)NCc1ccc(Cl)c(C(=O)Nc2cccc3c(NC4CCC(F)(F)CC4)ncnc23)c1 [Example-14] noted as > 7.30

The value of pIC50 measured for the compound CC(C)(C)C(=O)NCc1ccc(Cl)c(C(=O)Nc2cccc3c(Oc4ccc(F)c(C(F)(F)F)c4)ccnc23)c1F [Example-51] turned out to be > 7.30

So, CC(C)(C)C(=O)NCc1ccc(Cl)c(C(=O)Nc2cccc3c(Oc4cccc(C(F)(F)F)c4)nccc23)n1 [Example-6] ? Its pIC50 was 7.00 to 7.30

So for CC(C)(C)C(=O)NCc1ccc(Cl)c(C(=O)Nc2cccc3c(O[C@H]4CC[C@H](C(F)(F)F)CC4)ncnc23)c1 [Example-39] , the logged pIC50 turned out to be > 7.30

Notebook: CC(C)Oc1ncnc2c(NC(=O)c3c(Cl)ccc(CNC(=O)C(C)(C)C)c3F)cccc12 [Example-59] , pIC50 read as > 7.30

So for CC(C)(C)C(=O)NCc1ccc(Cl)c(C(=O)Nc2cccc3c(Oc4cccc(C(F)(F)F)c4)ccnc23)c1 [Example-16] , the logged pIC50 turned out to be > 7.30

The recorded pIC50 for entry Cc1nc(NC(C)(C)C)c2cccc(NC(=O)c3c(Cl)ccc(CNC(=O)C(C)(C)C)c3F)c2n1 [Example-65] equals > 7.30

Consider CC(C)Nc1ncnc2c(NC(=O)c3c(Cl)ccc(CNC(=O)C(C)C)c3F)cccc12 [Example-77] . Its measured pIC50 is > 7.30
